study_system: Leishmania HGPRT (Leishmania tarentolae, UniProt Q9NJI5, D188E/G191E/H176R/L189Y/T185D/V183G/V192L/W184M)
method_summary: biochemical
measurement_parameters: IC50, recombinant L. tarentolae HGPRT; 1 min, 1 mM PRPP, 0.04 mM guanine, pH 7.4; six inhibitor concentrations in triplicate
endpoint_label: pIC50
Recall that pIC50 is obtained by taking minus log10 of the concentration measured in molar.

(Q) Entry CO/N=C(\C(=O)N[C@@H]1C(=O)N2C(C(=O)O)=C(COC(C)=O)CS[C@H]12)c1csc(N)n1 : reported pIC50 = ?
(A) 3.74

(Q) How about this compound: Nc1nc2c(nc(N)n2[C@@H]2O[C@H](CO)[C@@H](O)[C@H]2O)c(=O)[nH]1
(A) 4.03

(Q) How about this compound: O=C(O)c1cc(=O)[nH]c(=O)[nH]1
(A) 3.36

(Q) How about this compound: Oc1ncnc2[nH]ncc12
(A) 3.71

* * *

study_system: Leishmania HGPRT (Leishmania tarentolae, UniProt Q9NJI5, D188E/G191E/H176R/L189Y/T185D/V183G/V192L/W184M)
method_summary: biochemical
measurement_parameters: recombinant L. tarentolae HGPRT; 1 min, 1 mM PRPP, 0.04 mM guanine, pH 7.4; six inhibitor concentrations in triplicate; read-out: IC50
Method: The HGPRT enzyme inhibition assay was performed for 1 min in a 1 ml reaction volume containing 100 mM Tris-HCl, 5 mM MgSO4, 1 mM PRPP, 0.04 mM guanine at pH 7.4 [41]. An extinction coefficient of 4.2 was used.
Readings of IC50 for the listed compounds
Quick reminder: number only, in µM, skip the unit.

smiles_text	recorded_value
Nc1ncnc2c1ccn2[C@@H]1O[C@H](CO)[C@@H](O)[C@H]1O	533
O=c1[nH]cnc2c([C@@H]3O[C@H](CO)[C@@H](O)[C@H]3O)n[nH]c12	260

(Q) Entry O=c1[nH]c(=O)n([C@H]2C[C@H](O)[C@@H](CO)O2)cc1Br : reported IC50 = ?
(A) 350

(Q) How about this compound: Nc1nc(Cl)c2[nH]cnc2n1
(A) 838

(Q) How about this compound: Cc1cnc(=O)[nH]c1N
(A) 412
